Biological target: Glucose transporter (Leishmania mexicana) (UniProt O61059)
Assay: ST_JUDE_LEISH: Cytotoxicity at 2uM final concentration against transgenic Leishmania Mexicana promastigotes LmGT2 that are glucose transport deficient and complemented with the L. Mexicana glucose transporter 2. Activity is measured by DNA content using SYBR green in vitro
Assay type: functional
measured property: inhibition (%)

compound | val
COc1ccc(CC(C)NCC(O)c2cccc(Br)c2)cc1 (centres undefined) | 9.13
O=C(/C=C/c1ccc(Cl)c(Cl)c1)N1CCC(CN2CCC(c3c(-c4ccccc4)[nH]c4ccccc34)CC2)CC1 | 0.62
COC(=O)c1ccc(CC(C)NCC(O)c2ccc3ccc4ccccc4c3c2)cc1 (centres undefined) | 3.14
CN1C(=O)OC[C@@H]1Cc1ccc2[nH]cc(C3=CCN(Cc4ccccc4)CC3)c2c1 | -0.74
COc1ccc(CN2CCN(CCOC(c3ccccc3)c3ccc(Cl)cc3)CC2)c(O)c1 (centres undefined) | 6.46
OC1(c2ccc(Cl)c(C(F)(F)F)c2)CCN(CCOC2c3ccccc3CSc3ccc(Cl)cc32)CC1 (centres undefined) | 2.27
CC[C@H]1CN2CC[C@H]1C[C@@H]2[C@@H](OC(=O)c1ccc(Cl)cc1)c1ccnc2ccc(OC)cc12 | -1.41
C=C[C@H]1CN2CC[C@H]1C[C@@H]2[C@@H](O)c1ccnc2ccccc12 | 0.13
COc1ccc(OC)c(CNCC(O)c2cc(C(F)(F)F)cc(C(F)(F)F)c2)c1 (centres undefined) | 3.49
Cc1c(C)c2c(c(C)c1O)CC[C@](C)(C(=O)N1CCC(CN3CCC(c4c[nH]c5ccccc45)CC3)CC1)O2 | 0.9
O=C(Cc1cc(=O)oc2cc(O)ccc12)NC1CCC(CN2CCC(c3c[nH]c4ccccc34)CC2)CC1 (centres undefined) | 2.14
CC(C)CNCc1cccc(-c2cccc(CN(C(=O)NC3CCCCC3)C3CCN(Cc4ccccc4)CC3)c2)c1 | 5.98
COc1ccc(C=CC(=O)N2CCC(CN3CCC(c4c[nH]c5ccccc45)CC3)CC2)cc1OC | -0.06
Cc1ccc(CC(C)(C)NCC(O)c2cccc(C(F)(F)F)c2)cc1 (centres undefined) | 3.49
CN(Cc1ccccc1)C1CCN(CCc2c[nH]c3ccc(F)cc23)CC1 | 7.12
CCCCC1(NC(=O)[C@H](CC(C)C)Nc2ccc(C#N)c3ccccc23)CCCCC1 | 2.56
OC1(CNCc2ccccc2)CCN(CCc2c[nH]c3ccc(F)cc23)CC1 | 5.83
Cc1nc2ccccc2n1C1CC2CCC(C1)N2Cc1nccn1-c1ccccc1 (centres undefined) | 2.15
CC[C@H]1CN2CC[C@H]1C[C@H]2[C@H](O)c1cc(-c2ccccc2C(F)(F)F)nc2ccc(OC)cc12 | -1.22

* * *

Listing: inhibition of selected molecules
Target: Hexose transporter 1 (Plasmodium falciparum) (UniProt O97467)
Experiment: ST_JUDE_LEISH: Cytotoxicity at 2uM final concentration against transgenic Leishmania Mexicana promastigotes LmPfHT that are glucose transport deficient and complemented with the Plasmodium falciparum hexose transporter. Activity is measured by DNA content using SYBR green in vitro
Assay type: functional

molecule | inhibition
O=C(NC1CCC(CN2CCC(c3c[nH]c4ccccc34)CC2)CC1)c1cnn(-c2ccccc2)c1-c1ccccc1Cl (stereo not drawn) | 10.3%
CC[C@H]1CN2CC[C@H]1C[C@H]2[C@H](O)c1cc(Cl)nc2ccc(OC)cc12 | 1.71%
COC(C(=O)OCCC1CCCN1C)(c1ccccc1)C1CCCCC1 (stereo not drawn) | 10.5%
CNC(=O)c1ccc2[nH]cc(C3CCN(CC4CCC(NC(=O)/C=C/c5ccc(Cl)c(Cl)c5)CC4)CC3)c2c1 (stereo not drawn) | 7.99%
O=C(O)c1ccc2nc(-c3ccc(-c4ccccc4)cc3)n(C3CCN(Cc4ccc(-c5ncc[nH]5)cc4)CC3)c2c1 | 8.89%
CS(=O)(=O)Nc1ccc2[nH]cc(C3CCN(CC4CCC(NC(=O)/C=C/c5ccc(Cl)c(Cl)c5)CC4)CC3)c2c1 (stereo not drawn) | 6.93%
O=C(/C=C/c1ccc(Cl)c(Cl)c1)N1CCC(CN2CCC(c3c[nH]c4cc(C(F)(F)F)ccc34)CC2)CC1 | 3.35%
CCCCCCCc1cc(O)c2c3c(c(=O)oc2c1)CN(C)CC3 | 11.3%

* * *

Target: Glucose transporter (Leishmania mexicana) (UniProt O61059)
Experiment: ST_JUDE_LEISH: Cytotoxicity at 2uM final concentration against transgenic Leishmania Mexicana promastigotes LmGT2 that are glucose transport deficient and complemented with the L. Mexicana glucose transporter 2. Activity is measured by DNA content using SYBR green in vitro
Type: functional
Listing: inhibition of selected compounds
measured property: inhibition (%)

compound | val
O=C(NC1CCC(CN2CCC(c3c[nH]c4ccccc34)CC2)CC1)c1[nH]c(=O)[nH]c(=O)c1F (centres undefined) | -0.11
Cc1c(C)c2c(c(C)c1O)CC[C@@](C)(C(=O)N1CCC(CN3CCC(c4c[nH]c5ccccc45)CC3)CC1)O2 | -3.6
CN(c1cc(NC(=O)c2ccc(F)cc2)ccn1)C1CCN(Cc2cccc(O)c2)CC1 | 6.32
N#Cc1c(F)cc(N2CCC(NCC[C@H](N)Cc3ccc(F)c(F)c3)CC2)cc1F | 2.33
C=C[C@H]1CN2CC[C@H]1C[C@H]2[C@H](OS(=O)(=O)O)c1ccnc2ccccc12 | 9.07
CCCc1cc([C@@H](O)[C@@H]2C[C@@H]3CCN2C[C@@H]3CC)c2ccccc2n1 | 0.11
COc1ccc(CN2CCN(CCOC(c3ccc(F)cc3)c3ccc(F)cc3)CC2)c(O)c1 | 2.85
O=C(/C=C/c1ccc(Cl)c(Cl)c1)NCc1ccc(CN2CCC(c3c[nH]c4ccccc34)CC2)cc1 | 0.41
CC(C)(C)c1ccc(Cn2nc(C(=O)N3CCN(C(=O)C4CCCO4)CC3)c3ccccc32)cc1 (centres undefined) | -3.52

* * *

Biological target: Solute carrier family 2, facilitated glucose transporter member 1 (Homo sapiens) (UniProt P11166)
Sequence (P11166 whole entry): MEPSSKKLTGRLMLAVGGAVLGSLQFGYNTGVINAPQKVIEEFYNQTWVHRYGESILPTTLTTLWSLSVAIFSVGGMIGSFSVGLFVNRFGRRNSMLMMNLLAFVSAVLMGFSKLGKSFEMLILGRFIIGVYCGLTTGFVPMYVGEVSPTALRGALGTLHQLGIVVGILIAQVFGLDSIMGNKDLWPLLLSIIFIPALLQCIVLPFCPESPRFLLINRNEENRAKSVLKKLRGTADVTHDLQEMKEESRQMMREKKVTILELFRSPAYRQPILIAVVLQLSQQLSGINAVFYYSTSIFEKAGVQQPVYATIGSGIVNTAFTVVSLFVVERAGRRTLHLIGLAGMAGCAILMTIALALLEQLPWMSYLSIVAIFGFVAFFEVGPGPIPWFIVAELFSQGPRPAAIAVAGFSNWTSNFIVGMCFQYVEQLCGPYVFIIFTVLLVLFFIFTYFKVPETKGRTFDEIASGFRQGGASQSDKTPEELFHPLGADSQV
Assay: ST_JUDE_LEISH: Cytotoxicity at 2uM final concentration against transgenic Leishmania Mexicana promastigotes LmGLUT1 that are glucose transport deficient and complemented with the human glucose transporter GLUT1. Activity is measured by DNA content using SYBR green in vitro
Assay type: functional
Listing: inhibition of selected molecules
measured property: inhibition (%)

molecule | measured property | val
CC[C@H]1CN2CC[C@H]1C[C@H]2[C@H](O)c1cc(N2CCCC(C(=O)N(CC)CC)C2)nc2ccc(OC)cc12 (some centres not stated) | inhibition | 1.75
COc1ccc2[nH]cc(C3=CCN(Cc4ccccc4)CC3)c2c1 | inhibition | 3.41
O=C(Cc1cc(=O)oc2cc(O)ccc12)NC1CCC(CN2CCC(c3c[nH]c4ccccc34)CC2)CC1 (configuration not stated) | inhibition | 2.39
O=C(/C=C/c1ccc(Cl)c(Cl)c1)N1CCC(CN2CCC(c3c(-c4ccc(F)cc4)[nH]c4ccccc34)CC2)CC1 | inhibition | 0.15
c1ccc2c(NCCCCCCNc3c4ccccc4nc4ccccc34)c3ccccc3nc2c1 | inhibition | 5.54
N#Cc1c(Cl)cccc1Oc1ccc(S(=O)(=O)N2CCC(CN3CCC(c4c[nH]c5ccccc45)CC3)CC2)cc1 | inhibition | 1.64
N=C(N)NC(=O)Nc1ccc([N+](=O)[O-])c(Cl)c1 | inhibition | 0.15
Cc1cc(N(C)C2CCN(C)CC2)nc(Nc2ccc(Cl)cc2)n1 | inhibition | 2.63
COc1ccc(C(=O)C2CC2CN2CC=C(c3c[nH]c4ccc(OC)nc34)CC2)cc1 (configuration not stated) | inhibition | 1.91
CC[C@H]1CN2CC[C@@H]1C[C@H]2[C@H](O)c1ccnc2ccc(OC)cc12 | inhibition | 0.79
O=C(/C=C/c1ccc(Cl)c(Cl)c1)N1CCC(CN2CCC(c3c[nH]c4ccccc34)C(O)C2)CC1 (configuration not stated) | inhibition | 7.48
CC(C)n1ncc2c(C(=O)Nc3ccc(C#N)c(Cl)c3)cc(C3CC3)nc21 | inhibition | 2.24
CS(=O)(=O)Nc1ccc2[nH]cc(C3CCN(CC4CCC(NC(=O)/C=C/c5ccc(Cl)c(Cl)c5)CC4)CC3)c2c1 (configuration not stated) | inhibition | 0.82
O=C(/C=C/c1ccc(O)cc1)NC1CCC(CN2CCC(c3c[nH]c4ccccc34)CC2)CC1 (configuration not stated) | inhibition | -4.73
O=C(/C=C/c1ccc(Cl)c(Cl)c1)NCC1CCC(CN2CCC(c3c[nH]c4ccccc34)CC2)CC1 (configuration not stated) | inhibition | 2.37
CN1CCC(N(C)c2nccc(N3CCN(Cc4cncn4Cc4ccccc4)CC3)n2)CC1 | inhibition | 12.8
CN(c1cc(NC(=O)c2ccc(F)cc2)ccn1)C1CCN(Cc2cccc(O)c2)CC1 | inhibition | 2.68
O=C(Nc1ccc(Oc2ccccc2)cc1)NC1CCC(CN2CCC(c3c[nH]c4ccccc34)CC2)CC1 (configuration not stated) | inhibition | 1.21
COCC(=O)N(Cc1cccc(-c2ccc(CNCCc3ccccc3)cc2)c1)C1CCN(Cc2ccccc2)CC1 | inhibition | 3.83
Oc1ccc(CN2CCN(CCOC(c3ccccc3)c3ccccc3)CC2)cc1Cl | inhibition | 0.53
Cn1c(C2CC3CCC(C2)N3CC2CCC(NC(=O)/C=C/c3ccc(Cl)c(Cl)c3)CC2)nc2ccccc21 (configuration not stated) | inhibition | 4.11
CN(C)c1cccc(CCNCCc2c[nH]c3ccc(Cl)cc23)c1 | inhibition | -1.51
O=C(NC1CCN(CCc2c[nH]c3ccc(F)cc23)CC1)c1ncc(-c2ccccc2)[nH]1 | inhibition | 4.04
CC(=O)Nc1ccc2[nH]cc(C3CCN(CC4CCN(C(=O)/C=C/c5ccc(Cl)c(Cl)c5)CC4)CC3)c2c1 | inhibition | 0.82
CCCCCCCc1cc(=O)c2ccccc2[nH]1 | inhibition | 12.7
O=C(/C=C/c1ccc(F)c(C(F)(F)F)c1)N1CCC(CN2CCC(c3c[nH]c4ccccc34)CC2)CC1 | inhibition | 0.7
O=C(/C=C/c1ccc(Cl)c(Cl)c1)Nc1cccc(CN2CCC(c3c[nH]c4ccccc34)CC2)c1 | inhibition | 8.01
O=C(NC1CCC(CN2CCC(c3c[nH]c4ccccc34)CC2)CC1)c1cc(-c2cccc(Cl)c2)n(-c2ccc(Cl)cc2Cl)n1 (configuration not stated) | inhibition | 1.34
C=C[C@H]1CN2CC[C@@H]1C[C@H]2[C@H](O)c1cc(-c2ccc(F)cc2)nc2ccc(OC)cc12 | inhibition | 6.56
CNC(=O)c1ccc2[nH]cc(C3CCN(CC4CCC(NC(=O)/C=C/c5ccccc5Cl)CC4)CC3)c2c1 (configuration not stated) | inhibition | 10.8
O=C1c2ccccc2CCC1CCN1CC=C(c2c[nH]c3ccccc23)CC1 (configuration not stated) | inhibition | 2.89
O=C(NC1CCC(CN2CCC(c3c[nH]c4ccccc34)CC2)CC1)c1[nH]c(=O)[nH]c(=O)c1F (configuration not stated) | inhibition | -0.09
COCCNCc1cccc(-c2cccc(CN(C(=O)Nc3ccccc3)C3CCN(Cc4ccccc4)CC3)c2)c1 | inhibition | 3.2
CC[C@H]1CN2CC[C@H]1C[C@H]2[C@H](O)c1cc(-c2ccccc2F)nc2ccc(OC)cc12 | inhibition | 0.68
CC(Cc1ccc(C(C)(C)C)cc1)NCC(O)c1ccccc1 (configuration not stated) | inhibition | 2.91
CC1(C)N=C(N)N=C(N)N1c1ccc([N+](=O)[O-])cc1 | inhibition | 9.35
N#Cc1c(F)cc(N2CCC(NCC[C@H](N)Cc3ccc(F)c(F)c3)CC2)cc1F | inhibition | 2.18
